# targetOrTestSystem: Neurotensin receptor type 1 (Homo sapiens)
# protocol: NTR1 agonists in analog series, SAR follow-up, imaging, image-based, set 3 (AID 602356)
# testSettings: NTR1 image-based agonist assay, cellular imaging
The source made the active and inactive calls. How the calls were made is not given here.
measurementName: EC50

Using the record for `COc1cc2nc(CC(C)C)nc(N3CCN(c4ccccc4OC)CC3)c2cc1OC` , state its measured EC50.
15.1 µM

Using the record for `COc1cc2nc(C)nc(N3CCN(c4ccccc4OC)CC3)c2cc1OC` , state its measured EC50.
> 80 µM (inactive)

Using the record for `COc1cc2c3nnc(-c4ccc(F)cc4)c-3cn(Cc3ccncc3)c2cc1OC` , state its measured EC50.
18.4 µM

Using the record for `Fc1ccc(Cn2cc3c(-c4ccc(Cl)cc4)nnc-3c3cc4c(cc32)OCO4)cc1` , state its measured EC50.
9.12 µM
